Test system: T-47D breast
Experiment: NCI-60 one-dose screen, 48 h (100 = growth as untreated, 0 = no growth, -100 = all killed)
Settings: 10 µM unless noted
The panel holds about 83,000 compounds, 20% with a hit somewhere; the sample as a whole holds those more often.
Below is a list of entries, each paired with its recorded growth value.
Output spec: scalar in %, unitless text.

Example cases with answers are listed next.
molecule="COc1ccc2oc(=O)c(C3(C)NC(=O)c4c(/C=C/C(=O)OC(C)(C)C)cccc4N3)cc2c1 (stereo not given)" subject_of_test="T-47D breast" result_type=growth recorded_result=6.58
molecule=CCCCNC(=S)Nc1ccc(OCc2nc3ccccc3[nH]2)cc1 subject_of_test="T-47D breast" result_type=growth recorded_result=45.3
molecule=COc1ccc(-c2nnc3ccc(N/N=C/c4ccc(O)cc4)nn23)cc1 subject_of_test="T-47D breast" result_type=growth recorded_result=45.4
molecule="C=C1CC[C@@H]2[C@]3(C)COC(c4cn[nH]c4-c4cccc(Cl)c4)O[C@@H]3CC[C@@]2(C)[C@@H]1C/C=C1/C(=O)OCC1O (stereo not given in full)" subject_of_test="T-47D breast" result_type=growth recorded_result=-2.68

Value of growth reported for the molecule CCOC(=O)C1=C(N)N(c2ccccc2)C2=C(C(=O)CC(C)(C)C2)C1c1ccc(Cl)cc1Cl (stereo not given) is 20.9
